target.system: T1, human IL-12Rβ2 (human, UniProt Q99665 24-862)
T1 construct: Expressed on HEK293T cells transiently transfected with a pcDNA3 plasmid (Genscript clone OHu21785); also called hIL-12RB2; IL-12 receptor β2 subunit
T1 sequence: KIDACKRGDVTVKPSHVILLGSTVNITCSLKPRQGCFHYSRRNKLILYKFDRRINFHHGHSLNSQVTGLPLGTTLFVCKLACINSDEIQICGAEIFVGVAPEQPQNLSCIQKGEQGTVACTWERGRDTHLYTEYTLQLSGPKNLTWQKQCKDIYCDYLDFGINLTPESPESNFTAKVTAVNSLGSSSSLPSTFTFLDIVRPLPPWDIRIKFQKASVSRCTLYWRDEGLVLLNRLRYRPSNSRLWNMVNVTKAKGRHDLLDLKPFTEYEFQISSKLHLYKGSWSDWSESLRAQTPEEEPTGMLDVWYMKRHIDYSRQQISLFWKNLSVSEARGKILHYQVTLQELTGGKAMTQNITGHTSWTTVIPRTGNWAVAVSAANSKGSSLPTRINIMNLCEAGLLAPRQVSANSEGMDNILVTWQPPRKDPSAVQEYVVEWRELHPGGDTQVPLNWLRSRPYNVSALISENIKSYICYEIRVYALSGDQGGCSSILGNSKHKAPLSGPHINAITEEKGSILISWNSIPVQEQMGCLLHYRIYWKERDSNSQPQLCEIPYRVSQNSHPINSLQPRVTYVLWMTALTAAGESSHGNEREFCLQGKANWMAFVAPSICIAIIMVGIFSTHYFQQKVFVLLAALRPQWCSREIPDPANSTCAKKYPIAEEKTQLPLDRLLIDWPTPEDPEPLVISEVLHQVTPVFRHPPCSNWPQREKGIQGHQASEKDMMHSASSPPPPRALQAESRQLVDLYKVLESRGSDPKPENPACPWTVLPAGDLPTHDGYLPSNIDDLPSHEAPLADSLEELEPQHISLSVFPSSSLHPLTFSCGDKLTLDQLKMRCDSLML
experiment.notes: flow cytometry, P.E. on transfected HEK293T cells
Each record here notes measured % cells bound.
measured.parameter: % cells bound (%)

| binder | numeric.result |
| --- | --- |
| anti-IL-12Rβ2 VHH clone 2CRH41 (VHH, not shown: small tags and cut ends, periplasmic extract; also called 20365) VHH: QVQLQESGGGLVQPGGSLRLSCTASGFAFSSYWMYWVRQSPEKGFEWVSVVDTDGGITYYADSVKGRFTISRDNAKNTLYLQMNSLKPQDTALYYCARDRTTLEYTRTYYRTGQGTQVTVSS | 31.6 |
| anti-IL-12Rβ2 VHH clone 2CRH10 (VHH, not shown: small tags and cut ends, periplasmic extract; also called 20362) VHH: QVQLQESGGGLVQAGGSLVLSCAASGSAALIFLMSWYRQAPGKQRELVAEVSRGGSTTYADSVEGRFHISRDNAKNIVDLQMNSLKPEDTAVYYCKADQNYGDSLRSSWGRGTQVTVSS | 30.8 |
| anti-IL-12Rβ2 VHH clone 3CAHS180 (VHH, not shown: small tags and cut ends, periplasmic extract) VHH: QVQLQESGGGLVQAGDSLRLSCAASGRTFDTYIVGWFRQAPGKEREFVSALSWSDDTTIRDDSLRGRFTLSRDNAKNTVYLLMNSLKPEDTAVYYCAAKAKPPAATWSSYRNREWYDYWGQGTQVTVSS | 42.6 |
| anti-IL-12Rβ2 VHH clone 3CAHS153 (VHH, not shown: small tags and cut ends, periplasmic extract) VHH: QVQLQESGGGLVQAGGSLRLSCAASGRTFSSYAMGWFRQVPGKERDFVAAVSWGGLSTYYADSVEGRFTISRDNAKNTVFLQMNSLKPEDTAVYYCAADRAYEGLGYGEYEYWGQGTQVTVSS | 36.8 |

The values you see were collected from patent US20260209362A1.
